Just for reference, patent EP4324461A1 is where these values come from.

system: B16-F10 murine melanoma cell line; assay: Cytotoxicity in B16-F10 cells (MTT); type: cell-based; conditions: 150 µM, 48 h
measurementType: Cytotoxicity study in B16F10 cells % viability (%)
Give the quantity in %, number only.

Query block: // lookup Cytotoxicity study in B16F10 cells % viability for "O=C(/C=C/c1ccccc1)NCCCO"
Result block: 76.1

Query block: And then "O=C(/C=C/c1ccccc1)NCCO" , what is it?
Result block: 86.4

Query block: What do you have for CC(CO)NC(=O)/C=C/c1ccc(Cl)cc1 (stereo not drawn) ?
Result block: 80.6

Query block: Param item: "O=C(/C=C/c1ccc(Cl)cc1Cl)NCCCCO"
Result block: 46.5

Query block: Cool, now "O=C(/C=C/c1ccc(Cl)cc1)N1CCC(O)CC1"
Result block: 109.8

Query block: What do we get for CCC(CO)NC(=O)/C=C/c1ccc(Cl)cc1 (stereo not drawn) ?
Result block: 73.6

Query block: Another molecule to check: "O=C(/C=C/c1ccccc1)NCCCCCO"
Result block: 101.7

Query block: Next record, please: "Cc1ccc(/C=C/C(=O)NCCCCCO)cc1"
Result block: 85.2

Query block: Try this molecule next: CCC(O)CNC(=O)/C=C/c1ccc(Cl)cc1 (stereo not drawn)
Result block: 73.6

Query block: And "Cc1ccc(/C=C/C(=O)NCCCCO)cc1" ?
Result block: 50.6

Query block: "O=C(/C=C/c1ccc(Cl)cc1)NCCCCCO" , same question.
Result block: 88.2

Query block: Now consider CCC(O)CNC(=O)/C=C/c1ccc(Cl)cc1Cl (stereo not drawn) and answer again.
Result block: 101.7
